Provide the recorded Percent Effect for the entries that follow.
- assay system: Chromo domain-containing protein 1 (Saccharomyces cerevisiae (strain ATCC 204508 / S288c) (Baker's yeast)) (UniProt P32657)
- Sequence (P32657 whole entry, the tested form may be a part): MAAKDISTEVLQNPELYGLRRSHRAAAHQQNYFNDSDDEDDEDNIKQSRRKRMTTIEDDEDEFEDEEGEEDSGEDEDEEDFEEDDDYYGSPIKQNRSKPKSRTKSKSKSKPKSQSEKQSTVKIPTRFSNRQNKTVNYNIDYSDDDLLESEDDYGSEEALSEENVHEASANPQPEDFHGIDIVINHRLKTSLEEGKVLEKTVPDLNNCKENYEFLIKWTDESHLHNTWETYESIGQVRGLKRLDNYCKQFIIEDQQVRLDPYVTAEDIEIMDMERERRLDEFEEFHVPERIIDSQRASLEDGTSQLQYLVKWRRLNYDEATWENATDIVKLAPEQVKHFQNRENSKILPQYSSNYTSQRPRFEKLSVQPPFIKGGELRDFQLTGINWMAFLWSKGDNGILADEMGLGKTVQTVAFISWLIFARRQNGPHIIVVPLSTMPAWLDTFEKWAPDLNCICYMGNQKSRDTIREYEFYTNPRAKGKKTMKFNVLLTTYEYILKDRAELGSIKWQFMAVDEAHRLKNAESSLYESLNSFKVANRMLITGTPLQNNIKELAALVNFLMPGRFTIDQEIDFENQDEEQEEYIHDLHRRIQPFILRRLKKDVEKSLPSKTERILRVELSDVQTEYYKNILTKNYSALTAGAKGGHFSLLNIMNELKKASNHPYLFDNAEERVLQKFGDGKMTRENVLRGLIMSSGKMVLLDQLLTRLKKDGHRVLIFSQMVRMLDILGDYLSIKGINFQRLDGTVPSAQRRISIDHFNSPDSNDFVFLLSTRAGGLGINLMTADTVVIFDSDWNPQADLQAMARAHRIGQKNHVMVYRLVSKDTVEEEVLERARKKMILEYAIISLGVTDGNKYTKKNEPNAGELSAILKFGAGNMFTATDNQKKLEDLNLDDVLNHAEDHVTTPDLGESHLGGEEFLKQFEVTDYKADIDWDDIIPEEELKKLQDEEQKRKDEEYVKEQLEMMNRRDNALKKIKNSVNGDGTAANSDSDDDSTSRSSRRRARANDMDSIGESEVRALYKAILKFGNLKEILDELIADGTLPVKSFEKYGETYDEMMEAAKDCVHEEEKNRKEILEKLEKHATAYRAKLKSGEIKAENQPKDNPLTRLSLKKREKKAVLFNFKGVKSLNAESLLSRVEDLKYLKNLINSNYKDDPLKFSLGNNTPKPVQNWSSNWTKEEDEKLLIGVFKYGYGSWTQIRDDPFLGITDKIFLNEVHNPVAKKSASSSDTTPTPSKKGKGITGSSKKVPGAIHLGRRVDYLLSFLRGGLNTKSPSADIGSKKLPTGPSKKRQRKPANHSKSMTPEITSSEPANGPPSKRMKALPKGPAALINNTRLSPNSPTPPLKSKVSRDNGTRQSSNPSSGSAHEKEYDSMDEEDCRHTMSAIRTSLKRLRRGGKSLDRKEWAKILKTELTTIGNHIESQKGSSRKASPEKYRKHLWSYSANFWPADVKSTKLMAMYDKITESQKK
- experimental details: ScCHD-1 Enzyme Inhibition Assay; also: in the data most compounds retested in dose-response had high values
- Assay type: functional
- Parameters: scale not given: direction of the effect not stated beside the values
- run parameters: 30 µM
Report as: number unit

* CCc1ncncc1C(=O)N1CCOC(c2nc(C)n[nH]2)C1 (stereo not given) | 1.96%

Please give Percent Effect, item by item, for the list that follows.
1. COc1ncccc1CN1Cc2nnn(C)c2C(COCC2CC2)C1 (stereo not given)
2. Cc1noc(Cl)c1CCC(=O)N1CCC(CC(N)=O)CC1
3. COc1c(C2CCCN2C(=O)c2ccc(Cl)o2)c(C)nn1C (stereo not given)
4. CCc1nc(NCCCn2cccn2)c2c(n1)c(C)nn2C
5. Cc1nc(C)n(CC2CN(c3ccc(C#N)cn3)CCO2)n1 (stereo not given)

1: -4.09%; 2: -7.5%; 3: -0.337%; 4: -12.1%; 5: -3.17%

Please give Percent Effect, item by item, for the list that follows.
1. O=C(c1cnc(C2CC2)s1)N1CCCCC1Cn1cccn1 (stereo not given)
2. OC(CN1CCN(Cc2ccc(F)c(F)c2)CC1)C1CC1 (stereo not given)
3. CCCc1nc(CN2CCOC(Cn3cncn3)C2)no1 (stereo not given)
4. Cc1cnn(CCNCc2ccccc2Oc2cccnc2)c1

1: -0.92%; 2: -6.1%; 3: -24.9%; 4: -26%

====

- assay system: Tyrosyl-tRNA synthetase, putative (Trypanosoma cruzi (strain CL Brener)) (UniProt Q4DSP6)
- Sequence (Q4DSP6 as listed by the source): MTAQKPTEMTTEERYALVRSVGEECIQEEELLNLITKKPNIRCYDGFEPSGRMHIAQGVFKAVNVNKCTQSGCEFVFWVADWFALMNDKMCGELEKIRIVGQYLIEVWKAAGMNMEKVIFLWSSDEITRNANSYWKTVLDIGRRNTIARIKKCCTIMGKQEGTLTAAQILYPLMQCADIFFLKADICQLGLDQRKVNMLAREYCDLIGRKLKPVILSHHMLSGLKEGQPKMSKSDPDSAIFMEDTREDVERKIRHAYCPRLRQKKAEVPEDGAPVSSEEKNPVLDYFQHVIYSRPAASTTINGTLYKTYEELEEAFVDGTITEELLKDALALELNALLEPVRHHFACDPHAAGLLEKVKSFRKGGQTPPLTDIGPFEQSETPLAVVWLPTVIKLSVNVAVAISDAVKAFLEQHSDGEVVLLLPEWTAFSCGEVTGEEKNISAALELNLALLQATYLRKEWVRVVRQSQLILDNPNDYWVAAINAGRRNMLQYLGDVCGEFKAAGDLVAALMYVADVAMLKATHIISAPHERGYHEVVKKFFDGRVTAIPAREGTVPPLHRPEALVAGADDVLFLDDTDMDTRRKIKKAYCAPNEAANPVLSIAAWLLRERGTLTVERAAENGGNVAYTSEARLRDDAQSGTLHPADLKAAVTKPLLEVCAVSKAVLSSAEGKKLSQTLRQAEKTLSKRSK
- experimental details: Trypanosoma cruzi tyrosyl tRNA synthetase (TcYRS) _High Tyrosine SOP; also: in the data most compounds retested in dose-response had high values
- Format: functional
- Parameters: scale not given: direction of the effect not stated beside the values
- run parameters: 30 µM
Provide the recorded Percent Effect for the entries that follow.
Give bare numbers, in %.

Look over these answered cases.
- O=C(NC[C@@H]1CCCN1)c1cc(COc2cccc(C(F)(F)F)c2)[nH]n1: 4.21
- Cc1cc(N(C)C)nc(C2(C)CCCN2C(=O)c2cnccn2)n1 (configuration not stated): 1.06
- CCOc1ccc(Cl)cc1CNCCCn1ccnc1: -2.12
- CC(C)c1nnc2n1CCN(CC(=O)Nc1nncs1)C2: 2.86
- Cc1cc(OCC(=O)NC(C)c2ccc(N3CCOCC3)cc2)no1 (configuration not stated): 3.23

Please give Percent Effect, item by item, for the list that follows.
1. c1ccc(-c2noc(CN3CCC(c4ccn[nH]4)CC3)n2)cc1
2. O=C(C1COCCO1)N1CCN(Cc2ccc3c(c2)CCO3)CC1 (configuration not stated)
3. CN(CCO)Cc1nnc(C2CCN(C3CCCCC3)CC2)n1C
4. O=C(CN1CCCC(O)C1)NC(=O)NCc1cccs1 (configuration not stated)
5. COc1ccccc1CC(=O)NCc1c(C)nc2cc(=O)[nH]n2c1C
6. Cc1cn(CC(=O)NC2CCN(C(=O)C3CC3)CC2)c2ccccc12

4.76
3.45
2.73
3.19
4.41
3.23

====

- assay system: Tyrosyl-tRNA synthetase, putative (Trypanosoma cruzi (strain CL Brener)) (UniProt Q4DSP6)
- experimental details: Trypanosoma cruzi tyrosyl tRNA synthetase (TcYRS) SOP
- Assay type: functional
- Parameters: scale not given: direction of the effect not stated beside the values
- run parameters: 30 µM
endpoint: Percent Effect (%)
Answers are plain numbers, in %.

Look over these answered cases.
* COC1CCN(C(=O)Cc2csc(-c3ncccn3)n2)CC1 | 17.1
* Cc1ccc(NC(=O)NCCCc2n[nH]c(N)c2C#N)cc1 | 11.4
* COc1cc(CCC(=O)NC2CC2)ccc1OCC(F)(F)F | 16.1
* CC(NC(=O)NCCCN(C)S(C)(=O)=O)c1ccncc1 (stereo unspecified) | 20.2
* COc1ccc2c(c1)CC(NC(=O)NCc1cccs1)CO2 (stereo unspecified) | 8.97

Please give Percent Effect, item by item, for the list that follows.
1. Cc1nn(C)c(N(C)C)c1CNC1CCOc2c(F)cccc21 (stereo unspecified)
2. c1cnn(Cc2cn3c(n2)CN(Cc2nccs2)CC3)c1
3. Cc1[nH]ccc1C(=O)N1CCC(c2nnc(Cn3ccnc3)n2C)CC1
4. CN(C)CC1CSCCCN1C(=O)Nc1ccc(C(C)(C)C)cc1 (stereo unspecified)
5. CCN(CC(=O)NC(C)C)S(=O)(=O)N1CCCCCC1
6. Cc1cnn(CCC(=O)N2C[C@H]3CC[C@@H]2CN(CC(=O)N(C)C)C3)c1
7. COCCN1CCc2cc(C(=O)N(C)C)c(NC(C)C)nc2CC1
8. N#Cc1cccc(NC(=O)N[C@H](CO)c2ccccc2)c1

[4.88, 26.9, 16.1, 8.97, 16.1, 17.1, 3.7, 12.2]

====

- System: Trypanosoma cruzi
- experimental details: Trypanosoma cruzi phosphomannomutase and mannose-1-phosphate guanylyltransferase assay
- Assay type: functional
- Design: scale not given: direction of the effect not stated beside the values
- run parameters: 10 µM
endpoint: Percent Effect (%)
One number for each entry, in %.

Look over these answered cases.
* CC(C)C(=O)N1CCN(C(=O)CCc2nnc(-c3ccccc3)o2)CC1 | -4.06
* NC(=O)c1ccc(S(=O)(=O)NC2CCN(Cc3ccccc3)C2=O)cc1 (centres undefined) | 0.472
* O=C(c1ccc(Cl)o1)N1CCCC(c2cc(C(F)(F)F)[nH]n2)C1 (centres undefined) | -4.95
* Cc1cc(Nc2nc(C)cs2)nc(C2CCCCN2CCO)n1 (centres undefined) | 7.12
* Cc1nc(C)n(C2CCCN(C(=O)c3ccccc3C)C2)n1 (centres undefined) | -0.881
* CN(Cc1cn2c(n1)CN(C(=O)CC1CC1)CC2)Cc1ccco1 | -0.197
* Cc1cccc(N2CCN(C(=O)CN3CCN(CCO)CC3)CC2)c1 | 3.37
* CC(C(=O)NCc1ccnc(N2CCN(C)CC2)c1)n1cccn1 (centres undefined) | 7.14

Please give Percent Effect, item by item, for the list that follows.
1. Fc1cnc(N2CCn3cc(CNc4ccccn4)nc3C2)nc1
2. Cc1n[nH]c(C2CN(C(=O)CCc3ccco3)CCO2)n1 (centres undefined)
3. COCC1CN(Cc2ccc(C)o2)Cc2cn(C)nc21 (centres undefined)

1: -0.193; 2: 3.6; 3: -0.965

Please give Percent Effect, item by item, for the list that follows.
1. Cn1cc(NC(=O)Cn2c(CS(C)(=O)=O)nc3ccccc32)cn1
2. Cc1cccc(C(=O)Nc2ccc(OC3CCN(C)CC3)cc2)c1
3. CC(=O)Nc1nc(C(=O)NCc2ccc(N3CCCCCC3)nc2)cs1
4. CCC(NC(=O)C1CCN(S(C)(=O)=O)CC1)c1ccc(OC)c(OC)c1 (centres undefined)
5. CCNC(=O)N1CCCCC1CCNS(C)(=O)=O (centres undefined)
6. COCC1CC2(CCN(C(=O)c3occc3C)CC2)CO1 (centres undefined)
7. COc1ccc(CN2C[C@@H]3COC[C@]3(COc3cccnc3)C2)cc1
8. Cc1cnn(CCC(=O)N2CCCN(c3cccnn3)CC2)c1

1: 0.0974; 2: 7.57; 3: -1.13; 4: -1.48; 5: 8.3; 6: -6.61; 7: 3.12; 8: 1.74

====

- assay system: AMP-activated protein kinase, AMPK (Homo sapiens) (UniProt P54646+O43741+P54619+Q9UGJ0+Q9Y478+Q13131+Q9UGI9)
- experimental details: AMP-dependent Kinase enzyme assay. An in vitro enzyme assay that detects ADP turnover that is directly proportional to AMPK activity. This uses naive AMPK that is activated during the assay with MK-8722
- Format: functional
- Set-up: scale not given: direction of the effect not stated beside the values
- run parameters: 30 µM
Provide the recorded Percent Effect for the entries that follow.
Answers are plain numbers, in %.

Please give Percent Effect, item by item, for the list that follows.
1. COC(=O)c1cccc(OCCn2nc(-c3cccs3)oc2=O)c1
2. COCCN1CCC2(CC1)CC(COC)N(c1ncccn1)C2 (configuration not stated)
3. CCc1nc(CN2CCCN(C(=O)c3cnc[nH]3)CC2)cs1
4. COc1ccccc1CN1CC[C@]2(C[C@H](OC)CO2)C1

-4.63
1.21
2.03
3.5

====

- assay system: Sialic acid-binding Ig-like lectin 9 (Homo sapiens)
- experimental details: Hs-Siglec9 ALPHAscreen SOP 20170721
- Parameters: scale not given: direction of the effect not stated beside the values
- run parameters: 10 µM
endpoint: Percent Effect (%)
Answers are plain numbers, in %.

Look over these answered cases.
• Cc1noc(C(C)C)c1C(=O)NS(=O)(=O)c1ccc2c(c1)OCCCO2 = 1.83
• CCOCCOC(C)C(=O)NCc1cn2cc(Br)ccc2n1 (stereo not drawn) = 0.478
• CCS(=O)(=O)c1ccc(N2CCC(NC(C)=O)CC2)cc1 = -0.234
• CC(C)Oc1cccc(CNC(=O)NC(C)(C(=O)O)c2ccco2)c1 (stereo not drawn) = 13.7
• Cc1cnn(CC2CCCCN2C(=O)c2ccc3nnc(C)n3c2)c1 (stereo not drawn) = -9.14

Please give Percent Effect, item by item, for the list that follows.
1. CC(=O)N1CCN(C(=O)c2cnn(-c3ccccc3Cl)c2)CC1
2. Cc1cc(F)cc(S(=O)(=O)NCCCN2CCC(O)CC2)c1
3. Cc1nc(C)n(C2CCCN(C(=O)c3ccccc3C)C2)n1 (stereo not drawn)
4. Cc1ccn(-c2ccccc2NCc2cccnc2C)n1
5. Cc1cnc(C(=O)N2CCCN(Cc3csc(C)n3)CC2)cn1
6. Cc1ccc(CN2CC[C@H]3OCC[C@@H](c4nc(C)no4)[C@H]3C2)cc1
7. COc1cnc(C2(O)CCN(C(=O)c3ccncc3)CC2)c(OC)n1
8. Cc1csc(N2CCN(C(=O)Cc3ccsc3)CC2)n1

1. 17.5
2. 0.431
3. -8.82
4. -2.06
5. 11.9
6. -2.48
7. 2.87
8. 9.11

Please give Percent Effect, item by item, for the list that follows.
1. CSCC[C@H](N)C(=O)NCc1cc2n(n1)CCCN(C1CCCCC1)C2
2. O=C(c1cccc(=O)[nH]1)N(Cc1ccsc1)CC1CCCO1 (stereo not drawn)

1. 5.09
2. 6.17
